Reference source for all entries: patent US8765786B2

Molecular target: human α7 nAChR (Homo sapiens)
Construct: expressed in transfected cells; host or cells: GH4C1 cells derived from rat pituitary (ATCC CCL-82.2)
Sequence (P36544 23-502): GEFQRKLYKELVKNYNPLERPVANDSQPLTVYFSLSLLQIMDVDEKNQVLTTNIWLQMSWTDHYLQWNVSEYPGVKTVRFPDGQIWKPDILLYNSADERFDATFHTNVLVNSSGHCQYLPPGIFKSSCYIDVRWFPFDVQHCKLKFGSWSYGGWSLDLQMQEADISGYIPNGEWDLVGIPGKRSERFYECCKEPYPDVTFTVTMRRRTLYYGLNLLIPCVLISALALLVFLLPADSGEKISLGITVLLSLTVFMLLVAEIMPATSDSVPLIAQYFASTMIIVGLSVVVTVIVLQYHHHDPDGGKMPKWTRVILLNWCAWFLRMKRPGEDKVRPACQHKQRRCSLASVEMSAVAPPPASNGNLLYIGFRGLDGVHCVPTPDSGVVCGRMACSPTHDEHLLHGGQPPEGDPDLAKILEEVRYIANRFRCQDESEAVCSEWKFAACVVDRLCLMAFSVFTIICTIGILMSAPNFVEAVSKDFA
Experiment: Evaluation of PAM activity with human α7 nACh receptor stably expressing cells (aequorin luminescence, FDSS7000)
Type: cell-based
Conditions: test compound 10 μmol/L; ACh added at EC20; ratio of RLU (Max-Min) of test wells to control wells; read-out: α7PAM (%) @ 10 μmol/L
activity at 10 µM reference

[
  {
    "molecule": "O=C(NC1CCCC1)N1CCC(n2ncc3cc(Cl)ccc32)CC1 [Example 33]",
    "activity at 10 µM": "430%"
  },
  {
    "molecule": "CCOc1nn(C2CCN(C(=O)NC3CCOCC3)CC2)c2ccc(CC)cc12 [Example 2]",
    "activity at 10 µM": "625%"
  },
  {
    "molecule": "O=C(NC1CCC(F)(F)CC1)N1CCC(n2ncc3cc(-c4ccc(F)cc4)ccc32)CC1 [Example 70]",
    "activity at 10 µM": "719%"
  },
  {
    "molecule": "COCc1nn(C2CCN(C(=O)NC3CCC(F)(F)CC3)CC2)c2ccc(C)cc12 [Example 36]",
    "activity at 10 µM": "897%"
  },
  {
    "molecule": "CCOc1c(CC)ccc2c1cnn2C1CCN(C(=O)N[C@H]2CC[C@H](OC)CC2)CC1 [Example 272]",
    "activity at 10 µM": "442%"
  },
  {
    "molecule": "O=C(NC1CCCOC1)N1CCC(n2ncc3cc(OC(F)(F)F)ccc32)CC1 (stereo not shown) [Example 300]",
    "activity at 10 µM": "376%"
  },
  {
    "molecule": "O=C(NC1CCOCC1)N1CCC(n2ncc3cc(OC(F)(F)F)ccc32)CC1 [Example 227]",
    "activity at 10 µM": "768%"
  },
  {
    "molecule": "Cc1ccc2c(c1)c(C1CCOCC1)nn2C1CCN(C(=O)NC2CCC(F)(F)CC2)CC1 [Example 52]",
    "activity at 10 µM": "366%"
  },
  {
    "molecule": "CO[C@H]1CC[C@H](NC(=O)N2CCC(n3ncc4cc(C(F)(F)F)ccc43)CC2)CC1 [Example 163]",
    "activity at 10 µM": "318%"
  },
  {
    "molecule": "Cc1ccc2c(cnn2C2CCN(C(=O)N[C@@H]3CCCC3(F)F)CC2)c1 [Example 81]",
    "activity at 10 µM": "819%"
  },
  {
    "molecule": "CCc1ccc2c(cnn2[C@H]2CC[C@@H](C(=O)NC3CCC(F)(F)CC3)CC2)c1 [Example 6]",
    "activity at 10 µM": "285%"
  },
  {
    "molecule": "CCc1cccc2c1cnn2C1CCN(C(=O)N[C@H]2CC[C@H](OC)CC2)CC1 [Example 66]",
    "activity at 10 µM": "466%"
  },
  {
    "molecule": "CCOc1ccc2c(cnn2C2CCN(C(=O)C3CCC(F)(F)CC3)CC2)c1 [Example 3]",
    "activity at 10 µM": "512%"
  },
  {
    "molecule": "Cc1c(C2CC2)ccc2c1cnn2C1CCN(C(=O)NC2CCOCC2)CC1 [Example 283]",
    "activity at 10 µM": "845%"
  },
  {
    "molecule": "CCc1nn(C2CCN(C(=O)NC3CCC(F)(F)CC3)CC2)c2ccc(C)cc12 [Example 42]",
    "activity at 10 µM": "241%"
  },
  {
    "molecule": "CCOc1c(C)ccc2c1cnn2C1CCN(C(=O)N[C@H]2CC[C@H](OC)CC2)CC1 [Example 145]",
    "activity at 10 µM": "804%"
  },
  {
    "molecule": "CC(C)Cc1ccc2c(cnn2C2CCN(C(=O)C3CCOCC3)CC2)c1 [Example 103]",
    "activity at 10 µM": "281%"
  },
  {
    "molecule": "COc1c(C2CC2)ccc2c1cnn2C1CCN(C(=O)N[C@H]2CC[C@H](OC)CC2)CC1 [Example 263]",
    "activity at 10 µM": "749%"
  },
  {
    "molecule": "O=C(NC1CCC(F)(F)CC1)N1CCC(n2ncc3cc(Cl)ccc32)CC1 [Example 34]",
    "activity at 10 µM": "445%"
  }
]
